tested on: CDS-ZH002 direct (CIC-DUX4 sarcoma cells right after isolation); experiment: differential drug sensitivity score (dDSS) relative to sarcoma reference cohort mean DSS (DSS units (0-100 scale difference)); higher = more selective sensitivity than reference sarcomas; conditions: exposure time: 72 h; concentration range: 10-10000 nM
measured_endpoint: differential drug sensitivity score
A bare number is all that is needed in reply.

Some solved cases for reference:
compound	differential drug sensitivity score
CC(C)c1cc(C(=O)N2Cc3ccc(CN4CCN(C)CC4)cc3C2)c(O)cc1O	-2.7
O=C(NCCCNc1nc(Nc2cccc(NC(=O)N3CCCC3)c2)ncc1I)c1cccs1	-2.6
CC[C@H](Nc1ncnc2[nH]cnc12)c1nc2cccc(F)c2c(=O)n1-c1ccccc1	-1.5
Cc1nc(Nc2n[nH]c3c2CN(C(=O)N[C@H](CN(C)C)c2ccccc2)C3(C)C)c2sccc2n1	3.6
O=C(c1ccc(Nc2nccc(-c3cc4ccccc4s3)n2)cc1)N1CCC(N2CCCC2)CC1	0.3

Please tell me: differential drug sensitivity score of `Cc1cn(-c2cc(NC(=O)c3ccc(C)c(Nc4nccc(-c5cccnc5)n4)c3)cc(C(F)(F)F)c2)cn1` , system CDS-ZH002 direct? -0.7

Here is the next compound: `COc1cc(Nc2c(C#N)cnc3cc(OCCCN4CCN(C)CC4)c(OC)cc23)c(Cl)cc1Cl` -0.5

Here is the next compound: `C=CC(=O)Nc1cccc(Nc2nc(Nc3ccc(OCCOC)cc3)ncc2F)c1` -3.5

Here is the next compound: `Cn1c(Nc2ccc(C(F)(F)F)cc2)nc2cc(Oc3ccnc(-c4ncc(C(F)(F)F)[nH]4)c3)ccc21` 3

Here is the next compound: `CO[C@@H]1[C@H](N(C)C(=O)c2ccccc2)C[C@H]2O[C@]1(C)n1c3ccccc3c3c4c(c5c6ccccc6n2c5c31)C(=O)NC4` 0.6

Here is the next compound: `CCc1cc2c(cc1N1CCC(N3CCOCC3)CC1)C(C)(C)c1[nH]c3cc(C#N)ccc3c1C2=O` -0.8

Here is the next compound: `C=C(F)C(=O)N1CCN(c2nc(OC[C@@H]3CCCN3C)nc3c2CCN(c2cccc4cccc(Cl)c24)C3)C[C@@H]1CC#N` 0.7

Here is the next compound: `Cn1ncnc1[C@H]1c2n[nH]c(=O)c3cc(F)cc(c23)N[C@@H]1c1ccc(F)cc1` -2.2

Here is the next compound: COc1cc([C@@H]2c3cc4c(cc3[C@@H](O[C@@H]3O[C@@H]5CO[C@@H](C)O[C@H]5[C@H](O)[C@H]3O)[C@H]3COC(=O)[C@H]23)OCO4)cc(OC)c1O [Etoposide] -7.3

Here is the next compound: O=C(/C=C\n1cnc(-c2cc(C(F)(F)F)cc(C(F)(F)F)c2)n1)NNc1cnccn1 [Selinexor] -3.6

Here is the next compound: `Nc1cc(C(F)F)c(-c2nc(N3C4CCC3COC4)nc(N3C4CCC3COC4)n2)cn1` -3.3

Here is the next compound: `CCN(CC)CCNC(=O)c1c(C)[nH]c(/C=C2\C(=O)Nc3ccc(F)cc32)c1C` -2

Here is the next compound: `CCc1c(O)cc(O)c(C(=O)c2ccc(OCCN3CCOCC3)c(OC)c2)c1CC(=O)N(CCOC)CCOC` -0.4
